# System: S. pneumoniae ATCC 49619
# assay.comment: MIC against S. pneumoniae ATCC 49619
# Assay type: cell-based
# run.conditions: Streptococcus pneumoniae, ATCC49619, S. pneumoniae ATCC 49619; read-out: MIC
The following compounds are listed with their measured MIC values.

compound	MIC
CCC[C@@H]1C[C@@H](C(=O)N[C@@H]([C@H]2O[C@H](SC)[C@H](O)[C@@H](O)[C@H]2O)[C@H](C)Cl)N(C)C1 [Clindamycin, clindamycin, reference compound]	0.12 µg/mL
CCC[C@@H]1C[C@@H](C(=O)N[C@@H]([C@H]2OC(SC)[C@H](O)C(O)C2O)[C@H](C)n2cc(CN)nn2)N(C)C1 (stereo partly drawn) [FSA-215072]	8 µg/mL
CCC[C@@H]1C[C@@H](C(=O)N[C@H]([C@H](C)NC(=O)CCCN)[C@H]2OC(SC)[C@H](O)C(O)C2O)N(C)C1 (stereo partly drawn) [FSA-215052]	> 64 µg/mL
CCC[C@@H]1C[C@@H](C(=O)N[C@@H]([C@H]2OC(SC)[C@H](O)C(O)C2O)[C@H](C)N(C)Cc2ccccc2[N+](=O)[O-])N(C)C1 (stereo partly drawn) [FSA-215081]	2 µg/mL
CCC[C@@H]1C[C@@H](C(=O)N[C@H]([C@@H]2CCCC2N)[C@H]2OC(SC)[C@H](O)C(O)C2O)N(C)C1 (stereo partly drawn) [FSA-217045a]	64 µg/mL

# input for lookup
Ask | For the compound CCC[C@@H]1C[C@@H](C(=O)N[C@H](CNc2ccccc2)[C@H]2OC(SC)[C@H](O)C(O)C2O)N(C)C1 (stereo partly drawn) [FSA-214088] , what MIC is on record?
Reply | > 64 µg/mL

====

# Test system: S. pneumoniae ATCC 49619
# assay.comment: MIC against S. pneumoniae ATCC 49619
# Type: cell-based
# run.conditions: Streptococcus pneumoniae, ATCC49619, S. pneumoniae ATCC 49619; read-out: MIC
readout.kind: MIC

Consider the worked cases shown below.
molecule	system.name	MIC
CCC[C@@H]1C[C@@H](C(=O)N2CCC[C@@H]2[C@H]2OC(SC)[C@H](O)C(O)C2O)N(C)C1 (some centres unmarked)	S. pneumoniae ATCC 49619	> 64 µg/mL
CCC[C@@H]1C[C@@H](C(=O)N[C@H]([C@H](C)NC(=O)CCN)[C@H]2OC(SC)[C@H](O)C(O)C2O)N(C)C1 (some centres unmarked)	S. pneumoniae ATCC 49619	> 64 µg/mL
CCC[C@@H]1C[C@@H](C(=O)N[C@H](CNCc2ccc(F)cc2)[C@H]2OC(SC)[C@H](O)C(O)C2O)N(C)C1 (some centres unmarked)	S. pneumoniae ATCC 49619	> 64 µg/mL
CCC[C@@H]1C[C@@H](C(=O)N[C@H](CNC2CC2)[C@H]2OC(SC)[C@H](O)[C@H](O)C2O)N(C)C1 (some centres unmarked) [FSA-214082b]	S. pneumoniae ATCC 49619	> 64 µg/mL

Ask | For the molecule CCC[C@@H]1C[C@@H](C(=O)N[C@H](CNc2ccc(-c3cncnc3)cc2)[C@H]2OC(SC)[C@H](O)C(O)C2O)N(C)C1 (some centres unmarked) , what MIC is on record?
Reply | > 64 µg/mL

Ask | Same for CCC[C@@H]1C[C@@H](C(=O)N[C@H](CN)[C@H]2OC(SC)[C@H](O)C(O)C2O)N(C)C1 (some centres unmarked)
Reply | > 64 µg/mL

Ask | Same for CCC[C@@H]1C[C@@H](C(=O)N[C@H](CNC23CC(C2)C3)[C@H]2OC(SC)[C@H](O)C(O)C2O)N(C)C1 (some centres unmarked)
Reply | > 64 µg/mL

Ask | Same for C#C[C@@H](NC(=O)[C@@H]1C[C@@H](CCC)CN1C)[C@H]1OC(SC)[C@H](O)C(O)C1O (some centres unmarked)
Reply | 4 µg/mL

Ask | Same for CCC[C@@H]1C[C@@H](C(=O)N[C@H]([C@H]2C=CCC2)[C@H]2OC(SC)[C@H](O)C(O)C2O)N(C)C1 (some centres unmarked)
Reply | 0.5 µg/mL

Ask | Same for CCC[C@@H]1C[C@@H](C(=O)N[C@H](CN=[N+]=[N-])[C@H]2OC(SC)[C@H](O)C(O)C2O)N(C)C1 (some centres unmarked)
Reply | 4 µg/mL

Ask | Same for CCC[C@@H]1C[C@@H](C(=O)N[C@H](CO)[C@H]2OC(SC)[C@H](O)C(O)C2O)N(C)C1 (some centres unmarked)
Reply | 4 µg/mL
